Recorded values, source patent US11117901B2.

- study-target: hChoKβ FL (Homo sapiens, UniProt Q9Y259)
- Construct: hChoKβ full length (FL), corresponding to aminoacids 2-395; GST (N, cleaved yes); PreScission Protease recognition site (N); made in house; host or cells: Escherichia coli BL21pLysS (DE3)
- Sequence (Q9Y259 2-395): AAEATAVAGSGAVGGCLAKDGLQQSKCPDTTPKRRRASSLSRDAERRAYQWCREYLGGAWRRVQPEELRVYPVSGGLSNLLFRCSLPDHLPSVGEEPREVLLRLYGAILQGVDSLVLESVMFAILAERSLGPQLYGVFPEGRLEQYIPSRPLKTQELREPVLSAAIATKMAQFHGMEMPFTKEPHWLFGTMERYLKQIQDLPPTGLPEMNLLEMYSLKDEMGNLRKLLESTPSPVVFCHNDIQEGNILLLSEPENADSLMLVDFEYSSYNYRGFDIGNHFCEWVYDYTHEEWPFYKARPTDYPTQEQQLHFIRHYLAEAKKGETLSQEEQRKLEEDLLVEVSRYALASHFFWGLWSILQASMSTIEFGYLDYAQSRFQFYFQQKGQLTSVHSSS
- assay: Biochemical kinase inhibition assay (Kinase-Glo luminescent) on hChoKβ FL
- protocol-conditions: recombinant hChoKβ FL 30 nM, ATP 5 μM, choline 20 μM, 60 min rt; read-out: ChoKβ IC50
Give measured pIC50 for each item. Keep answers brief.
Answers are plain numbers, as −log10 of the molar value.

Known results for molecules:
1. CN(C)[C@@H]1CCN(Cc2csc(NC(=O)c3n[nH]c4c3C(C)(C)Cc3cnc(N)nc3-4)n2)C1 = 5.96
2. CC1(C)Cc2cnc(N)nc2-c2[nH]nc(C(=O)Nc3cccc(C(=O)N4CCC(N5CCCC5)CC4)c3)c21 = 6.36
3. Cn1nc(C(=O)Nc2nc(COC3CCN(C4CCCCCC4)CC3)cs2)c2c1-c1nc(N)ncc1CC2(C)C = 5.45

Now turn to the next molecule.
Lookup result for `CC1CCN([C@H]2CC[C@H](OCc3csc(NC(=O)c4n[nH]c5c4C(C)(C)Cc4cnc(N)nc4-5)n3)CC2)CC1` ; measured pIC50: 6.05

----------
- study-target: hChoKβ FL (Homo sapiens, UniProt Q9Y259)
- Construct: hChoKβ full length (FL), corresponding to aminoacids 2-395; GST (N, cleaved yes); PreScission Protease recognition site (N); made in house; host or cells: Escherichia coli BL21pLysS (DE3)
- assay: Biochemical kinase inhibition assay (Kinase-Glo luminescent) on hChoKβ FL
- protocol-conditions: recombinant hChoKβ FL 30 nM, ATP 5 μM, choline 20 μM, 60 min rt; read-out: ChoKβ IC50
Give measured log10 of IC50 for each item. Keep answers brief.
Please be aware that the numbers have been log10-transformed from IC50 in nM.

Known results for molecules:
1. CC1CCN(C2CCN(C(=O)Cc3csc(NC(=O)c4n[nH]c5c4C(C)(C)Cc4cnc(N)nc4-5)n3)CC2)CC1 = 1.91
2. CC1(C)Cc2cnc(N)nc2-c2[nH]nc(C(=O)Nc3nc(COC4CCN(Cc5ccccc5)CC4)cs3)c21 = 2.65
3. CC1CCN(C2CCN(Cc3cccc(NC(=O)c4n[nH]c5c4C(C)(C)Cc4cnc(N)nc4-5)c3)CC2)CC1 = 3.33
4. CC1CCCN(C2CCN(C(=O)Cc3csc(NC(=O)c4n[nH]c5c4C(C)(C)Cc4cnc(N)nc4-5)n3)CC2)C1 (stereo not shown) = 2.33

Lookup result for `CNC1CCN(C(=O)Cc2csc(NC(=O)c3n[nH]c4c3C(C)(C)Cc3cnc(N)nc3-4)n2)CC1` ; measured log10 of IC50: 1.82

----------
- study-target: hChoKβ FL (Homo sapiens, UniProt Q9Y259)
- Construct: hChoKβ full length (FL), corresponding to aminoacids 2-395; GST (N, cleaved yes); PreScission Protease recognition site (N); made in house; host or cells: Escherichia coli BL21pLysS (DE3)
- assay: Biochemical kinase inhibition assay (Kinase-Glo luminescent) on hChoKβ FL
- protocol-conditions: recombinant hChoKβ FL 30 nM, ATP 5 μM, choline 20 μM, 60 min rt; read-out: ChoKβ IC50
# note: boundary value 500 nM maps to NO; IC50 below it maps to YES

1. CN1CCN(C2CCN(C(=O)c3ccc(NC(=O)c4n[nH]c5c4C(C)(C)Cc4cnc(N)nc4-5)cc3)CC2)CC1 = YES
2. Cc1nc(NC(=O)c2n[nH]c3c2C(C)(C)Cc2cnc(N)nc2-3)sc1C(=O)NC1CCN(C)CC1 = NO
3. CC1(C)Cc2cnc(N)nc2-c2[nH]nc(C(=O)Nc3nc(COC4CCN(CC5CCCCC5)CC4)cs3)c21 = YES
4. CC1(C)Cc2cnc(N)nc2-c2[nH]nc(C(=O)Nc3nc(CC(=O)N4CCC(N5CCCCCC5)CC4)cs3)c21 = YES

### Prompt Take the compound `CC1(C)Cc2cnc(N)nc2-c2[nH]nc(C(=O)Nc3cccc(C4OCCCO4)c3)c21` and say whether its IC50 is less than 500 nM.
### Response NO

### Prompt Take the compound `CC1(C)Cc2cnc(N)nc2-c2[nH]nc(C(=O)Nc3nc(C(F)(F)C(=O)N4CCC(N5CCCCC5)CC4)cs3)c21` and say whether its IC50 is less than 500 nM.
### Response NO

### Prompt Take the compound `CC1(C)Cc2cnc(N)nc2-c2[nH]nc(C(=O)Nc3nc(CC(=O)N4CC[C@H](O)C4)cs3)c21` and say whether its IC50 is less than 500 nM.
### Response NO

### Prompt Take the compound `CC1(C)Cc2cnc(N)nc2-c2[nH]nc(C(=O)Nc3nc(CC(=O)N4CCN(c5ccccc5)CC4)cs3)c21` and say whether its IC50 is less than 500 nM.
### Response NO

### Prompt Take the compound `CC1(C)Cc2cnc(N)nc2-c2[nH]nc(C(=O)Nc3nc(CC(=O)N4CCC(N5CCCC(F)(F)C5)CC4)cs3)c21` and say whether its IC50 is less than 500 nM.
### Response NO

----------
- study-target: Δ49N-hChoKα (Homo sapiens)
- Construct: cDNA fragment 362-1534, corresponding to aminoacids 50 457; GST (N, cleaved yes); PreScission Protease recognition site (N); made in house; host or cells: Escherichia coli BL21pLysS (DE3)
- assay: Biochemical kinase inhibition assay (Kinase-Glo luminescent) on Δ49N-hChoKα
- protocol-conditions: recombinant Δ49N-hChoKα 2.2 nM, ATP 5 μM, choline 5 μM, 60 min rt; read-out: ChoKα IC50
Give measured IC50 for each item. Keep answers brief.
Numbers only, in nM.

Known results for molecules:
1) CC1(C)Cc2cnc(N)nc2-c2[nH]nc(C(=O)Nc3nc(CC(=O)N4CCC(O)CC4)cs3)c21 = 228
2) CC1(C)Cc2cnc(N)nc2-c2[nH]nc(C(=O)Nc3nc(C4(C(=O)N5CCC(N6CCCCC6)CC5)CC4)cs3)c21 = 233
3) CC1(C)Cc2cnc(N)nc2-c2[nH]nc(C(=O)Nc3nc4ccc(Cl)cc4s3)c21 = 306
4) CC(C)(C)OC(=O)NC1CCN(Cc2ccc(NC(=O)c3n[nH]c4c3C(C)(C)Cc3cnc(N)nc3-4)cc2)CC1 = 536
5) CC1(C)Cc2cnc(N)nc2-c2[nH]nc(C(=O)Nc3nc(CC(=O)N4CCC(N5CCC(F)(F)CC5)CC4)cs3)c21 = 18

Could you report IC50 for every entry in the following list?
1. CN(C)C1CCN(C(=O)c2ccc(NC(=O)c3n[nH]c4c3C(C)(C)Cc3cnc(N)nc3-4)cc2)CC1
2. CC1(C)Cc2cnc(N)nc2-c2[nH]nc(C(=O)Nc3cccc(CC(=O)N4CCC(N)CC4)c3)c21

### Response
[198, 164]

----------
- study-target: Δ49N-hChoKα (Homo sapiens)
- Construct: cDNA fragment 362-1534, corresponding to aminoacids 50 457; GST (N, cleaved yes); PreScission Protease recognition site (N); made in house; host or cells: Escherichia coli BL21pLysS (DE3)
- assay: Biochemical kinase inhibition assay (Kinase-Glo luminescent) on Δ49N-hChoKα
- protocol-conditions: recombinant Δ49N-hChoKα 2.2 nM, ATP 5 μM, choline 5 μM, 60 min rt; read-out: ChoKα IC50
pIC50: −log10 of the molar value.
Use 7 as the dividing line for pIC50, with the line itself on the YES side and lower values as NO.

1. CN1CCC(NC(=O)c2ccc(NC(=O)c3nn(CCCO)c4c3C(C)(C)Cc3cnc(N)nc3-4)cc2)CC1 = NO
2. CN1CCc2nc(NC(=O)c3n[nH]c4c3C(C)(C)Cc3cnc(N)nc3-4)sc2C1 = NO
3. CC1(C)CCN(C2CCN(C(=O)Cc3csc(NC(=O)c4n[nH]c5c4C(C)(C)Cc4cnc(N)nc4-5)n3)CC2)CC1 = YES
4. CC1(C)Cc2cnc(N)nc2-c2[nH]nc(C(=O)Nc3nc(CN4CCC(N)CC4)cs3)c21 = NO
5. CC1(C)Cc2cnc(N)nc2-c2[nH]nc(C(=O)Nc3cccc(C=O)c3)c21 = NO

Okay, next one:
### Prompt Given the entry `CC1CCN(C2CCN(C(=O)c3ccc(NC(=O)c4n[nH]c5c4C(C)(C)Cc4cnc(N)nc4-5)cc3)CC2)CC1` , answer whether its pIC50 meets or surpasses 7.
### Response YES

----------
- study-target: Δ49N-hChoKα (Homo sapiens, UniProt P35790)
- Construct: cDNA fragment 362-1534, corresponding to aminoacids 50 457; GST (N, cleaved yes); PreScission Protease recognition site (N); made in house; host or cells: Escherichia coli BL21pLysS (DE3)
- Sequence (P35790 50-439 isoform P35790-2): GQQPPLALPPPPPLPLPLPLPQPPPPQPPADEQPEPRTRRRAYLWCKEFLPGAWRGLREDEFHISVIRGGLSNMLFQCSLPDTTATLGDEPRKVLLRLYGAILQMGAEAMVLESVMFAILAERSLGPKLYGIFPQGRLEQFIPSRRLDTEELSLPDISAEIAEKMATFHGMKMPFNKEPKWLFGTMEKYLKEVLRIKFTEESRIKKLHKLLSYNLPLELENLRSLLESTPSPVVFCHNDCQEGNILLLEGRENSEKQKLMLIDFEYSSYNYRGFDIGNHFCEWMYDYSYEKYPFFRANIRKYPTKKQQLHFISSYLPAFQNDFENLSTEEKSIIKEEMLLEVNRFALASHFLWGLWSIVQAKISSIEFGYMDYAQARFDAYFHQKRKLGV
- assay: Biochemical kinase inhibition assay (Kinase-Glo luminescent) on Δ49N-hChoKα
- protocol-conditions: recombinant Δ49N-hChoKα 2.2 nM, ATP 5 μM, choline 5 μM, 60 min rt; read-out: ChoKα IC50
pIC50: −log10 of the molar value.
Use 7 as the dividing line for pIC50, with the line itself on the criterion met side and lower values as criterion not met.

Sample answers from the record:
1. CC1CCN(C2CCN(Cc3cccc(NC(=O)c4nn(C)c5c4C(C)(C)Cc4cnc(N)nc4-5)c3)CC2)CC1 = criterion not met
2. CN(C)C1CCN(Cc2ccc(NC(=O)c3n[nH]c4c3C(C)(C)Cc3cnc(N)nc3-4)cc2)CC1 = criterion met
3. Cn1nc(C(=O)Nc2nc(COC3CCN(C4CCCCCC4)CC3)cs2)c2c1-c1nc(N)ncc1CC2(C)C = criterion met

### Prompt Given the entry `CNC(=O)c1ccc(NC(=O)c2n[nH]c3c2C(C)(C)Cc2cnc(N)nc2-3)cc1` , answer whether its pIC50 meets or surpasses 7.
### Response criterion not met
